System under test: delta protein kinase C (δPKC) (rat) (UniProt P09215)
Assay: PKC overlay assay: inhibition of δPKC binding to blotted dF1Fo by the peptide; densitometry
Ends that are not written are not given here.
Outcome measure: IC50 (µM)
Field format: number, assumed µM, no unit text.

[Q] State the recorded IC50 for this entry: AGRKLALKTIDWVSF (not fully specified) [δPKC-dF1Fo inhibitor peptide …]
[A] 300

The origin of these recorded values is patent US20120283182A1.
